Molecular target: T1, human CLDN6 fused to GFP, expressed on engineered HEK293T cells (HEK293T-CLDN6-mGFP) (human, UniProt P56747 1-220)
T1 construct: It calls residues 1-21 a signal peptide; also called Claudin-6; HEK293T-CLDN6-mGFP Artificial CLDN6+; not shown: mGFP tag
T1 sequence: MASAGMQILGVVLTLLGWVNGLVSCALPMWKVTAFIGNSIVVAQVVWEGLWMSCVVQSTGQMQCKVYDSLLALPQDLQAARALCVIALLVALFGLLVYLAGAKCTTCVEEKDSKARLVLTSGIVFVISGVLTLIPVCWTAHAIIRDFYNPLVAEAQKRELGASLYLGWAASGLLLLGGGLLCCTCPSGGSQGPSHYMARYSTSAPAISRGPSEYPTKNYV
Test: FACS, 1.5 µg Ab, 293T clone with human CLDN6
measure: FACS fluorescence
No unit in the answer, please; the number alone is enough.

{"columns": ["binder", "FACS fluorescence"],
 "data": [
  ["AB4-8 (antibody, V domains shown, Humanized; also called Humanized AB 4-8) VH: QVQLVQSGAEVKKPGASVKVSCKASGYTFTSYTMHWVRQAPGQGLEWMGYINPSSTYTHYIKKFKDRVTMTADTSTSTVYMELSSLRSEDTAVYYCSRGELGGFAYWGQGTLVTVSS VL: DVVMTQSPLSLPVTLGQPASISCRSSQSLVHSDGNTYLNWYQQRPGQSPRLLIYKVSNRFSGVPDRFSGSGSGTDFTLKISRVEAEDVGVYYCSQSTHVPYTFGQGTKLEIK", 77600],
  ["AB11-chim (antibody, V domains shown, 'chim' is the pre-humanized form (parental variable regions); also called pre-humanized (chimeric) form of AB11) VH: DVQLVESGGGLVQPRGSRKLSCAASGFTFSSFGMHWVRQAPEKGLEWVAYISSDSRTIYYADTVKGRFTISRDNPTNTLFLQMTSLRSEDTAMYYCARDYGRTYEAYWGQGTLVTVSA VL: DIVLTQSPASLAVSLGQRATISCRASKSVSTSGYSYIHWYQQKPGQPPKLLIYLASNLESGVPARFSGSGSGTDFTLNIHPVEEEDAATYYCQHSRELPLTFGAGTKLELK", 3490]
]}

Could you now consider this next binder?
Q: FACS fluorescence lookup needed for AB1-4 (antibody, V domains shown, also called Humanized AB 1-4) VH: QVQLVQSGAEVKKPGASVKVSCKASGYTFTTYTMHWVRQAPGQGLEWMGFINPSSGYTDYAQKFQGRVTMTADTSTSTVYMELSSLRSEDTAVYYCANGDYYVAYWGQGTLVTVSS VL: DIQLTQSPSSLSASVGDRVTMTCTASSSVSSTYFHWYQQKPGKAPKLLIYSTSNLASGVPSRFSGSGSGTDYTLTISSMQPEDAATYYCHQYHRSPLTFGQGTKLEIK , thanks.
Result: 197000
